Sourced from paper PMC8646019

Test: Biodistribution and metabolism of FNC in rats (UHPLC-MS/MS)
Conditions: male, Sprague-Dawley, in vivo; rat, FNC 5 mg/kg oral, 2 h, average n=5; read-out: Concentration in kidney
Result type: concentration at 2 h (ng/g)
Give bare numbers, in ng/g.

Record [N-]=[N+]=N[C@]1(CO)O[C@@H](n2ccc(N)nc2=O)[C@@H](F)[C@@H]1O , field concentration at 2 h: 798
